EC50, hGIP-R level of cAMP (HEK293 cells expressing human GIP R) values for the binders below.
Target: T1, human GIP receptor (human, UniProt P48546 22-466)
T1 sequence (looked up): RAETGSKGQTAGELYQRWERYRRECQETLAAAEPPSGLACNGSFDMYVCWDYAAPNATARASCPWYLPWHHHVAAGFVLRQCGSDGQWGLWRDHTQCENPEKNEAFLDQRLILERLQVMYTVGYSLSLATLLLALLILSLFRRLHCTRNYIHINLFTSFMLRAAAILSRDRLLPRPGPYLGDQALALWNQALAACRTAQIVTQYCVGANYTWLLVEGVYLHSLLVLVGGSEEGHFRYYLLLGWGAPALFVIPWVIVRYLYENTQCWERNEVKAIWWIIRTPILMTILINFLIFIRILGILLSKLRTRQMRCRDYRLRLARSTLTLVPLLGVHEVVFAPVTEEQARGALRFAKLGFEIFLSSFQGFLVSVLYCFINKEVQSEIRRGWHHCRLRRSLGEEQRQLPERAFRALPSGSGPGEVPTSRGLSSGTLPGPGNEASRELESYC
Assay: cell-based or functional assay
Starred links: 1 amine or outer side, 2 acyl side, 3 side chain; linkers in the order of their positions; H or OH if unused. Non-standard residues stand in square brackets, D forms with d. Groups on a side chain read outwards from the residue. *: point of attachment. C20 diacid = O=C(O)CCCCCCCCCCCCCCCCCCC(=O)*; γGlu = O=C(O)[C@H](CCC(=O)[*:2])N[*:1]; Aib = CC(C)(N)C(=O)O
assay-endpoint: EC50, hGIP-R level of cAMP (HEK293 cells expressing human GIP R) (pM)

binder | data-value
H-Y[Aib]EGTFISDYSIELDKIAQKEFIEWLLAGPSSGAPPPSK([Peg3-Peg3-γGlu-C20 diacid])-NH2 [Compound 24] | 8
H-Y[Aib]EGTFISDYSIELDKK([Peg3-Peg3-γGlu-C20 diacid])AQRAFIEWLLAQGPSSGAPPPS-NH2 [Compound 18] | 6
H-Y[Aib]EGTFISDYSIELDKK([Peg3-Peg3-γGlu-C20 diacid])AAQAFVNWLLAGPSSGAPPPS-NH2 [Compound 29] | 14
H-Y[Aib]EGTFISDYSIELDKK([Peg3-Peg3-γGlu-C20 diacid])AQRAFVEWLLAQGPSSGAPPPS-NH2 [Compound 17] | 7
H-Y[Aib]EGTFISDYSIELDKK([Peg3-Peg3-γGlu-C20 diacid])AAQDFVNWLLAGPSSGAPPPS-NH2 [Compound 15] | 12
H-Y[Aib]EGTFISDYSIELDKK([Peg3-Peg3-γGlu-C20 diacid])AAQDFVNWLLAAGPSSGAPPPS-NH2 [Compound 30] | 9
H-Y[Aib]EGTFISDYSIELDKIAAQDFVEWLLAGPSSGAPPPSK([Peg3-Peg3-γGlu-C20 diacid])-NH2 [Compound 27] | 13
